Form field: pIC50 (one value per entry).
System: 755483-174-R-J1-PDC complex spheroid growth, percent test/control
experiment_summary: Anticancer human tumor 755483-174-R-J1-PDC patient-derived rhabdomyosarcoma cell line growth inhibition [Asc]
assay_conditions: curve of first compound; second compound 1 µM
pIC50: −log10 of the molar value.

{"columns": ["compound", "pIC50"],
 "data": [
  ["COc1c(OCCCN2CCOCC2)ccc2c3n(c(=NC(=O)c4cnc(N)nc4)nc12)CCN3 + CNC(C)C(=O)NC1CN(S(=O)(=O)c2cccc(S(=O)(=O)N3CCC4CCC(C(=O)NC(c5ccccc5)c5ccccc5)N4C(=O)C(NC(=O)C(C)NC)C3)c2)CCC2CCC(C(=O)NC(c3ccccc3)c3ccccc3)N2C1=O", "> 8.50"],
  ["CCN1CCN(Cc2ccc(Nc3ncc(F)c(-c4cc(F)c5nc(C)n(C(C)C)c5c4)n3)nc2)CC1 + Cc1c(S(C)(=O)=O)c(-c2cc(F)cc(N3CCN(c4ccc(NS(=O)(=O)c5ccc(NC(CCN6CCC(C(=O)OCCCP(=O)(O)O)CC6)CSc6ccccc6)c(S(=O)(=O)C(F)(F)F)c5)cc4)CC3)c2)c(-c2ccc(Cl)cc2)n1C(C)C", "> 8.50"],
  ["O=C(c1cc(Cc2n[nH]c(=O)c3ccccc23)ccc1F)N1CCN(C(=O)C2CC2)CC1 + CNC(C)C(=O)NC1CN(S(=O)(=O)c2cccc(S(=O)(=O)N3CCC4CCC(C(=O)NC(c5ccccc5)c5ccccc5)N4C(=O)C(NC(=O)C(C)NC)C3)c2)CCC2CCC(C(=O)NC(c3ccccc3)c3ccccc3)N2C1=O", "> 7.50"],
  ["Cc1nc(N2CCC3(CC2)COC(C)C3N)c(CO)nc1Sc1ccnc(N)c1Cl (stereo not drawn) + CNC(C)C(=O)NC1CN(S(=O)(=O)c2cccc(S(=O)(=O)N3CCC4CCC(C(=O)NC(c5ccccc5)c5ccccc5)N4C(=O)C(NC(=O)C(C)NC)C3)c2)CCC2CCC(C(=O)NC(c3ccccc3)c3ccccc3)N2C1=O", "> 8.02"],
  ["O=C(c1ccc(F)c(F)c1Nc1ccc(I)cc1F)N1CC(O)([C@@H]2CCCCN2)C1 + Cc1c(S(C)(=O)=O)c(-c2cc(F)cc(N3CCN(c4ccc(NS(=O)(=O)c5ccc(NC(CCN6CCC(C(=O)OCCCP(=O)(O)O)CC6)CSc6ccccc6)c(S(=O)(=O)C(F)(F)F)c5)cc4)CC3)c2)c(-c2ccc(Cl)cc2)n1C(C)C", "> 8.50"],
  ["COc1c(OCCCN2CCOCC2)ccc2c3n(c(=NC(=O)c4cnc(N)nc4)nc12)CCN3 + Cc1c(S(C)(=O)=O)c(-c2cc(F)cc(N3CCN(c4ccc(NS(=O)(=O)c5ccc(NC(CCN6CCC(C(=O)OCCCP(=O)(O)O)CC6)CSc6ccccc6)c(S(=O)(=O)C(F)(F)F)c5)cc4)CC3)c2)c(-c2ccc(Cl)cc2)n1C(C)C", "> 8.50"],
  ["C=CC(=O)N1CCN(c2nc(=O)n(-c3c(C)ccnc3C(C)C)c3nc(-c4c(O)cccc4F)c(F)cc23)C(C)C1 (stereo not drawn) + Cc1c(S(C)(=O)=O)c(-c2cc(F)cc(N3CCN(c4ccc(NS(=O)(=O)c5ccc(NC(CCN6CCC(C(=O)OCCCP(=O)(O)O)CC6)CSc6ccccc6)c(S(=O)(=O)C(F)(F)F)c5)cc4)CC3)c2)c(-c2ccc(Cl)cc2)n1C(C)C", "> 7.50"],
  ["NC1CCC(NC2CC2c2ccccc2)CC1 (stereo not drawn) + CNC(C)C(=O)NC1CN(S(=O)(=O)c2cccc(S(=O)(=O)N3CCC4CCC(C(=O)NC(c5ccccc5)c5ccccc5)N4C(=O)C(NC(=O)C(C)NC)C3)c2)CCC2CCC(C(=O)NC(c3ccccc3)c3ccccc3)N2C1=O", "> 9.50"]
]}

###

System: 755483-174-R-J1-PDC complex spheroid growth, percent test/control
experiment_summary: Anticancer human tumor 755483-174-R-J1-PDC cell line growth inhibition [Asc];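 further: spheroids exposed to compounds for seven days before readout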
assay_conditions: second compound 1 µM; first compound 0.3 µM; stronger effect = lower value
Description: Multicellular complex tumor spheroid response to apoptosis pathway targeting inhibitors Alrizomadlin, Pelcitoclax, and Dasminapant in combination with a variety of drugs and investigational agents in selected tumor cell lines […] Compounds. […] If the clinical Cmax for an agent had not been determined, the highest concentration tested was 10 microM. […]
quantity_measured: viability, T/C (%)

{"columns": ["molecule", "data_value"],
 "data": [
  ["Cc1nc(N2CCC3(CC2)COC(C)C3N)c(CO)nc1Sc1ccnc(N)c1Cl (stereo not drawn) + CNC(C)C(=O)NC1CN(S(=O)(=O)c2cccc(S(=O)(=O)N3CCC4CCC(C(=O)NC(c5ccccc5)c5ccccc5)N4C(=O)C(NC(=O)C(C)NC)C3)c2)CCC2CCC(C(=O)NC(c3ccccc3)c3ccccc3)N2C1=O", 24.9],
  ["NC(=O)C(=Cn1cnc(-c2cc(C(F)(F)F)cc(C(F)(F)F)c2)n1)c1cncnc1 + CNC(C)C(=O)NC1CN(S(=O)(=O)c2cccc(S(=O)(=O)N3CCC4CCC(C(=O)NC(c5ccccc5)c5ccccc5)N4C(=O)C(NC(=O)C(C)NC)C3)c2)CCC2CCC(C(=O)NC(c3ccccc3)c3ccccc3)N2C1=O", 1.7],
  ["CCN1C(C(=O)NC23CCC(C(=O)O)(CC2)CC3)C(c2cccc(Cl)c2F)C2(C(=O)Nc3cc(Cl)ccc32)C12CCCCC2 (stereo not drawn) + CNC(C)C(=O)NC1CN(S(=O)(=O)c2cccc(S(=O)(=O)N3CCC4CCC(C(=O)NC(c5ccccc5)c5ccccc5)N4C(=O)C(NC(=O)C(C)NC)C3)c2)CCC2CCC(C(=O)NC(c3ccccc3)c3ccccc3)N2C1=O", 23.1]
]}

###

Test system: 755483-174-R-J1-PDC complex spheroid growth, percent test/control
experiment_summary: Anticancer human tumor 755483-174-R-J1-PDC cell line growth inhibition [Asc];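 further: spheroids exposed to compounds for seven days before readout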
assay_conditions: second compound 0.1 µM; first compound 0.1 µM; stronger effect = lower value

{"columns": ["molecule", "viability, T/C"],
 "data": [
  ["C=CC(=O)N1CCN(c2nc(=O)n(-c3c(C)ccnc3C(C)C)c3nc(-c4c(O)cccc4F)c(F)cc23)C(C)C1 (configuration not stated) + Cc1c(S(C)(=O)=O)c(-c2cc(F)cc(N3CCN(c4ccc(NS(=O)(=O)c5ccc(NC(CCN6CCC(C(=O)OCCCP(=O)(O)O)CC6)CSc6ccccc6)c(S(=O)(=O)C(F)(F)F)c5)cc4)CC3)c2)c(-c2ccc(Cl)cc2)n1C(C)C", "46.7%"],
  ["NC1CCC(NC2CC2c2ccccc2)CC1 (configuration not stated) + Cc1c(S(C)(=O)=O)c(-c2cc(F)cc(N3CCN(c4ccc(NS(=O)(=O)c5ccc(NC(CCN6CCC(C(=O)OCCCP(=O)(O)O)CC6)CSc6ccccc6)c(S(=O)(=O)C(F)(F)F)c5)cc4)CC3)c2)c(-c2ccc(Cl)cc2)n1C(C)C", "37%"]
]}

###

Tested on: 755483-174-R-J1-PDC complex spheroid growth, percent test/control
experiment_summary: Anticancer human tumor 755483-174-R-J1-PDC cell line growth inhibition [Asc];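 further: spheroids exposed to compounds for seven days before readout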
assay_conditions: second compound 0.1 µM; first compound 0.1 µM; stronger effect = lower value
Description: Multicellular complex tumor spheroid response to apoptosis pathway targeting inhibitors Alrizomadlin, Pelcitoclax, and Dasminapant in combination with a variety of drugs and investigational agents in selected tumor cell lines […] Compounds. […] If the clinical Cmax for an agent had not been determined, the highest concentration tested was 10 microM. […]

{"columns": ["molecule", "viability, T/C / %"],
 "data": [
  ["Cn1ncnc1[C@H]1c2n[nH]c(=O)c3cc(F)cc(c23)N[C@@H]1c1ccc(F)cc1 + Cc1c(S(C)(=O)=O)c(-c2cc(F)cc(N3CCN(c4ccc(NS(=O)(=O)c5ccc(NC(CCN6CCC(C(=O)OCCCP(=O)(O)O)CC6)CSc6ccccc6)c(S(=O)(=O)C(F)(F)F)c5)cc4)CC3)c2)c(-c2ccc(Cl)cc2)n1C(C)C", 35],
  ["COc1c(OCCCN2CCOCC2)ccc2c3n(c(=NC(=O)c4cnc(N)nc4)nc12)CCN3 + Cc1c(S(C)(=O)=O)c(-c2cc(F)cc(N3CCN(c4ccc(NS(=O)(=O)c5ccc(NC(CCN6CCC(C(=O)OCCCP(=O)(O)O)CC6)CSc6ccccc6)c(S(=O)(=O)C(F)(F)F)c5)cc4)CC3)c2)c(-c2ccc(Cl)cc2)n1C(C)C", 15.8],
  ["CNC(C)C(=O)NC1CN(S(=O)(=O)c2cccc(S(=O)(=O)N3CCC4CCC(C(=O)NC(c5ccccc5)c5ccccc5)N4C(=O)C(NC(=O)C(C)NC)C3)c2)CCC2CCC(C(=O)NC(c3ccccc3)c3ccccc3)N2C1=O (centres undefined) + Cc1c(S(C)(=O)=O)c(-c2cc(F)cc(N3CCN(c4ccc(NS(=O)(=O)c5ccc(NC(CCN6CCC(C(=O)OCCCP(=O)(O)O)CC6)CSc6ccccc6)c(S(=O)(=O)C(F)(F)F)c5)cc4)CC3)c2)c(-c2ccc(Cl)cc2)n1C(C)C", 20.2],
  ["C#Cc1c(F)ccc2cc(O)cc(-c3ncc4c(N5CC6CCC(C5)N6)nc(OCC56CCCN5CC(F)C6)nc4c3F)c12 (centres undefined) + CNC(C)C(=O)NC1CN(S(=O)(=O)c2cccc(S(=O)(=O)N3CCC4CCC(C(=O)NC(c5ccccc5)c5ccccc5)N4C(=O)C(NC(=O)C(C)NC)C3)c2)CCC2CCC(C(=O)NC(c3ccccc3)c3ccccc3)N2C1=O", 42.6]
]}
